Measured Plasma active GLP-1 concentration (relative value), listed per entry.
# Test system: active GLP-1 in plasma
# test.method.notes: GLP-1 secretion-stimulating action by combined use of DPP4 inhibitor and sweetener (2), Example 4
# Assay type: in vivo, mouse
# recorded.conditions: sweetener 6 g/kg orally combined with Compound A′ 10 mg/kg orally; 1 hour after dosing; relative to 100 for Compound A′ and fructooligosaccharide 6 g/kg; C57BL/6J mice
measurement.type: Plasma active GLP-1 concentration (relative value)

INSERT INTO assay_data (molecule, assay_result) VALUES
  ('OC[C@@H](O)[C@@H](O[C@H]1O[C@H](CO)[C@@H](O)[C@H](O)[C@H]1O)[C@H](O)[C@@H](O)CO [Maltitol, α-D-glucopyranosyl-(1→4)-D-glucitol]', 422),
  ('OC[C@H]1O[C@H](O[C@]2(CCl)O[C@H](CCl)[C@@H](O)[C@@H]2O)[C@H](O)[C@@H](O)[C@H]1Cl [Sucralose, sucralose]', 166),
  ('O=C[C@H](O)[C@@H](O)[C@H](O)CO [Xylose, xylose]', 597),
  ('OC[C@@H](O)[C@@H](O)[C@H](O)[C@@H](O)CO [Sorbitol, sorbitol]', 863),
  ('OC[C@@H](O)[C@@H](O)CO [Erythritol, erythritol]', 461),
  ('OC[C@@H](O)[C@@H](O)[C@H](O)[C@H](O)CO [D-mannitol]', 742),
  ('OC[C@H]1O[C@@](CO)(OC[C@@]2(O[C@H]3O[C@H](CO)[C@@H](O)[C@H](O)[C@H]3O)O[C@H](CO)[C@@H](O)[C@@H]2O)[C@@H](O)[C@@H]1O [Kestose, glucose-1,2-fructose-1,2-fructose]', 166),
  ('OC[C@H]1O[C@H](OC[C@H]2O[C@H](O[C@]3(CO)O[C@H](CO)[C@@H](O)[C@@H]3O)[C@H](O)[C@@H](O)[C@@H]2O)[C@H](O)[C@@H](O)[C@H]1O [Raffinose]', 77),
  ('O=C[C@H](O)[C@@H](O)[C@H](O)[C@H](O)CO[C@H]1O[C@H](CO)[C@H](O)[C@H](O)[C@H]1O [Melibiose, α-D-galactopyranosyl-(1→6)-D-glucose]', 454),
  ('OC[C@@H](O)[C@H](O)[C@@H](O)CO [Xylitol, xylitol]', 774);
